- targetOrSystem: Large T antigen (Simian virus 40)
- assayProtocol: SV40 large T antigen inhibitors, biochemical (AID 1903)
- conditionSummary: SV40 large T antigen ATPase/helicase inhibition assay; at 20 µM; active compounds read high
Among all 310,000 compounds or so, about 1,200 (0.39%) were called active. Not all results are given here. Results with a measured potency or affinity are listed apart.
Listed here: items and their measured inhibition.
metricName: inhibition (%)

1. CCOc1cc(NC(=S)NC)c(OCC)cc1NC(=O)c1cccs1: 9.37
2. CC(CC(=O)N(C)c1c(N)n(Cc2ccccc2)c(=O)[nH]c1=O)c1ccccc1 (stereo not given): 12.7
3. Cc1cc(S(=O)(=O)NCc2ccccc2)ccc1OCC(=O)NCc1cccnc1: 8.52
4. Cc1cc(C(=O)Nc2cccc(C(=O)O)c2)c(C)o1: 4.39
5. CN(C)CCn1c(COc2ccccc2)nc2ccccc21: 27.6
6. CCOc1cc(NS(=O)(=O)c2ccc(NC(C)=O)cc2)c(OCC)cc1NC(=O)C(C)C: 9.09
7. Cc1ccc(N(C(=O)c2csnn2)C(C(=O)NC2CCCCC2)c2ccccn2)cc1C (stereo not given): 4.41
8. COc1ccccc1CC(NC(C)=O)C(=O)N1CCN(C(=O)Nc2ccccc2Cl)CC1 (stereo not given): 11.4
9. COC(=O)c1ccccc1NC(=O)N1CCN(S(C)(=O)=O)CC1: 5.14
10. CC(/C=N/n1c(-c2cccnc2)n[nH]c1=S)=C\c1ccco1: 31.8
11. COc1ccc(/C=C/C(=O)Nc2cc(S(=O)(=O)N3CCCCC3)ccc2N2CCCCC2)cc1OC: -6.48
12. Cc1ccc(CNC(=O)c2ccccc2NC(=O)CN2CC(C)OC(C)C2)cc1 (stereo not given): 2.54
13. CCOC(=O)c1c(NC(=O)/C=C\C(=O)O)sc(C)c1-c1ccccc1: 12.2
14. CC1=C/C(=C(\c2ccc(O)c(C)c2)c2ccccc2S(=O)(=O)O)C=CC1=O: 1.87
15. CCN(c1ccc(NC(=O)COC(=O)CCC(=O)c2ccc(F)cc2)cc1)C(C)C: 23.7
16. C#CCOCCOCCOCCNc1nc(N2CCN(C(=O)Cn3cc(CCCCN)nn3)CC2)nc(N2CCN(C(=O)[C@H](C(C)C)n3cc(CCO)nn3)CC2)n1: 9.84
17. O=C(O)c1cc(S(=O)(=O)O)ccc1O: -2.3
18. CC1=NOC(=O)/C1=C\c1ccc(-c2ccc(Br)cc2C(=O)O)o1: 37.7
19. CC(OC(=O)Cc1n[nH]c(=O)c2ccccc12)C(=O)Nc1cccc([N+](=O)[O-])c1 (stereo not given): 8.17
20. CCCCn1c(SC(C)C(=O)c2ccc(OC)cc2)nc2cc(S(N)(=O)=O)ccc21 (stereo not given): 17.9

###

- targetOrSystem: Large T antigen (Simian virus 40) (UniProt P03070)
- Sequence (P03070 whole entry, looked up): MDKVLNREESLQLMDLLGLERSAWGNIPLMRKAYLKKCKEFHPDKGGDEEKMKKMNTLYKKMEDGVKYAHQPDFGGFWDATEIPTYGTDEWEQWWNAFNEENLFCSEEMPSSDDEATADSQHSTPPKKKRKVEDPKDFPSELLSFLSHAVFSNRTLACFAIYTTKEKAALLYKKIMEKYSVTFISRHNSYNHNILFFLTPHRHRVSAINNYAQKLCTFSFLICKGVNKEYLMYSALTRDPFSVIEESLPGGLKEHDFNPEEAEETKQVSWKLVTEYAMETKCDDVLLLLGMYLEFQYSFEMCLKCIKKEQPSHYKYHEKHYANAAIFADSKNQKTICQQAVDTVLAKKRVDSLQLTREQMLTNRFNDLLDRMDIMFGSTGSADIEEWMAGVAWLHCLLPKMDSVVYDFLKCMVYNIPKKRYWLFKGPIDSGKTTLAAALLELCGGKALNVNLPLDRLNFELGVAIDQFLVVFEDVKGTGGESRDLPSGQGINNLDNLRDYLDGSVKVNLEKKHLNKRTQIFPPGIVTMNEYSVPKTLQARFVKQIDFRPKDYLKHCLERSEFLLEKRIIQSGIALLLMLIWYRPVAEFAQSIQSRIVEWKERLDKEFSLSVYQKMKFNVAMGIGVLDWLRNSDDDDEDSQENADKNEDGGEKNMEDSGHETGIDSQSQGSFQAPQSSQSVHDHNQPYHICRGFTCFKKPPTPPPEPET
- assayProtocol: SV40 large T antigen inhibitors, biochemical (AID 1903)
- conditionSummary: SV40 large T antigen ATPase/helicase inhibition assay; at 20 µM; active compounds read high
Among all 310,000 compounds or so, about 1,200 (0.39%) were called active. The list is a sample of the results. Measured potencies and affinities stand elsewhere.
Listed here: items and their measured inhibition.
metricName: inhibition (%)

1. COc1ccc(/C=N/NC(=O)c2nnn(-c3nonc3N)c2-c2cccs2)cc1OC: 7.55
2. CCC(=Nc1ccccc1OC)C1=C(O)CC(c2ccccc2)CC1=O (stereo not drawn): 2.58
3. Cc1nc2ccc(NC(=O)c3ccc([N+](=O)[O-])cc3[N+](=O)[O-])cc2s1: 8.68
4. CCC(=NC)C1=C(O)CC(c2ccccc2)CC1=O (stereo not drawn): 3.84
5. Cc1cc(C)c2c(=O)[nH]n(C3CCOC(C)(C)C3)c2n1 (stereo not drawn): 13.4
6. Cc1ccc2[nH]c(=O)c(CN(Cc3ccccc3)C(=S)NCCCN(C)C)cc2c1: 2.51
7. Cc1nc2ccc(NC(=O)c3ccc(Cl)c([N+](=O)[O-])c3)cc2s1: 6.3
8. COCCNC(=O)c1ccc(C2SCC(=O)N2CCc2ccccc2)cc1 (stereo not drawn): 2.84
9. Cc1ccc(NC(=O)Cc2ccsc2)cc1Cl: 8.34
10. COc1cc(OC)c(C(=O)NC23CC4CC(CC(C4)C2)C3)cc1OC: 3.9
11. COc1cc(/C=N/NC(=O)c2cccc([N+](=O)[O-])c2)cc(OC)c1O: 20.1
12. CC1CCc2cc(F)ccc2N1C(=O)c1cc2nc(-c3ccco3)cc(C(F)(F)F)n2n1 (stereo not drawn): 0.153
13. COc1cc(OC)c(C(=O)OCC(=O)N2CCOCC2)cc1OC: -1.18

Ref: PubChem BioAssay AID1903
